Source of measurements: ChEMBL document CHEMBL5608163

Measured HC10 values are reported for all entries that follow.
- Tested on: Erythrocyte
- testName: Hemolytic activity in mouse erythrocyte assessed as hemolysis incubated for 1 hr by microplate reader analysis
- Format: toxicity, cell-based
Report as a plain number; the unit µM is understood.

Examples with their reported HC10 follow.
{"structure": "CCCCCCCCCCC(=O)NCCCC[C@@H](NC(=O)[C@@H](NC(=O)[C@H](CCCNC(=N)N)NC(=O)[C@@H](CCCCN)NC(=O)[C@H](CC(C)C)NC(=O)[C@H](CC(C)C)NC(=O)CN)[C@@H](C)CC)C(=O)N[C@H](C(=O)N[C@@H](CC(C)C)C(=O)N[C@@H](CC(C)C)C(N)=O)[C@@H](C)O", "testedSystem": "Erythrocyte", "testValue": 128}
{"structure": "CCCCCCCCCCCCC(=O)NCCCC[C@@H](NC(=O)[C@H](CC(C)C)NC(=O)[C@H](CC(C)C)NC(=O)CN)C(=O)N[C@@H](CCCNC(=N)N)C(=O)N[C@H](C(=O)N[C@H](CCCCN)C(=O)N[C@H](C(=O)N[C@@H](CC(C)C)C(=O)N[C@@H](CC(C)C)C(N)=O)[C@@H](C)O)[C@@H](C)CC", "testedSystem": "Erythrocyte", "testValue": 32}
{"structure": "CCCCCCCCCCC(=O)NCCCC[C@@H](NC(=O)[C@H](CC(C)C)NC(=O)[C@H](CC(C)C)NC(=O)CN)C(=O)N[C@@H](CCCNC(=N)N)C(=O)N[C@H](C(=O)N[C@H](CCCCN)C(=O)N[C@H](C(=O)N[C@@H](CC(C)C)C(=O)N[C@@H](CC(C)C)C(N)=O)[C@@H](C)O)[C@@H](C)CC", "testedSystem": "Erythrocyte", "testValue": 256}
{"structure": "CCCCCCCCC(=O)NCCCC[C@@H](NC(=O)[C@@H](NC(=O)[C@H](CCCNC(=N)N)NC(=O)[C@@H](CCCCN)NC(=O)[C@H](CC(C)C)NC(=O)[C@H](CC(C)C)NC(=O)CN)[C@@H](C)CC)C(=O)N[C@H](C(=O)N[C@@H](CC(C)C)C(=O)N[C@@H](CC(C)C)C(N)=O)[C@@H](C)O", "testedSystem": "Erythrocyte", "testValue": 256}
{"structure": "CCCCCCCCCCCCCCC(=O)NCCCC[C@@H](NC(=O)[C@@H](NC(=O)[C@H](CCCNC(=N)N)NC(=O)[C@@H](CCCCN)NC(=O)[C@H](CC(C)C)NC(=O)[C@H](CC(C)C)NC(=O)CN)[C@@H](C)CC)C(=O)N[C@H](C(=O)N[C@@H](CC(C)C)C(=O)N[C@@H](CC(C)C)C(N)=O)[C@@H](C)O", "testedSystem": "Erythrocyte", "testValue": 16}

QUERY: Dear colleague, I am looking for the recorded HC10 of the following compound: "CCCCCCCCCCCCC(=O)NCCCC[C@@H](NC(=O)[C@@H](NC(=O)[C@H](CCCNC(=N)N)NC(=O)[C@@H](CCCCN)NC(=O)[C@H](CC(C)C)NC(=O)[C@H](CC(C)C)NC(=O)CN)[C@@H](C)CC)C(=O)N[C@H](C(=O)N[C@@H](CC(C)C)C(=O)N[C@@H](CC(C)C)C(N)=O)[C@@H](C)O"
RESULT: 32

QUERY: What do you have for "CCCCCCCCCCCCCCCCC(=O)NCCCC[C@@H](NC(=O)[C@@H](NC(=O)[C@H](CCCNC(=N)N)NC(=O)[C@@H](CCCCN)NC(=O)[C@H](CC(C)C)NC(=O)[C@H](CC(C)C)NC(=O)CN)[C@@H](C)CC)C(=O)N[C@H](C(=O)N[C@@H](CC(C)C)C(=O)N[C@@H](CC(C)C)C(N)=O)[C@@H](C)O" ?
RESULT: 16

QUERY: What do you have for "CCCCCCCCCCCCCCC(=O)NCCCC[C@@H](NC(=O)[C@H](CC(C)C)NC(=O)[C@H](CC(C)C)NC(=O)CN)C(=O)N[C@@H](CCCNC(=N)N)C(=O)N[C@H](C(=O)N[C@H](CCCCN)C(=O)N[C@H](C(=O)N[C@@H](CC(C)C)C(=O)N[C@@H](CC(C)C)C(N)=O)[C@@H](C)O)[C@@H](C)CC" ?
RESULT: 32

QUERY: What do you have for "CCCCCCC(=O)NCCCC[C@@H](NC(=O)[C@@H](NC(=O)[C@H](CCCNC(=N)N)NC(=O)[C@@H](CCCCN)NC(=O)[C@H](CC(C)C)NC(=O)[C@H](CC(C)C)NC(=O)CN)[C@@H](C)CC)C(=O)N[C@H](C(=O)N[C@@H](CC(C)C)C(=O)N[C@@H](CC(C)C)C(N)=O)[C@@H](C)O" ?
RESULT: 256

====

- testName: Hemolytic activity in human RBC assessed as hemolysis measured after 24 hrs
- Assay type: toxicity, cell-based, Erythrocyte
- runConditions: red blood cells
Square brackets hold non-standard residues; d marks the D form. Peptide text beside a SMILES is read from it. 2Nal = N[C@@H](Cc1ccc2ccccc2c1)C(=O)O; hIle = CC[C@H](C)C[C@H](N)C(=O)O; Cha = N[C@@H](CC1CCCCC1)C(=O)O
measurementType: log10 HC50 at 24 h (log10 of the value in µM)
Use the decimal logarithm of HC50 at 24 h (µM).

Examples with their reported log10 HC50 at 24 h follow.
{"compound": "CC[C@H](C)[C@H](NC(=O)[C@H](Cc1c[nH]c2ccccc12)NC(=O)[C@H](CCCCN)NC(=O)[C@H](CC(C)C)NC(=O)[C@H](CC(C)C)NC(=O)CN)C(=O)N[C@@H](CCCCN)C(=O)N[C@@H](CCCCN)C(=O)N[C@@H](CC(C)C)C(=O)N[C@@H](CC(C)C)C(N)=O (H-GLLKWIKKLL-NH2)", "log10 HC50 at 24 h": 1.06}
{"compound": "CC[C@H](C)C[C@H](NC(=O)[C@H](CCCNC(=N)N)NC(=O)[C@H](CCCCN)NC(=O)[C@H](CC1CCCCC1)NC(=O)[C@H](CC(C)C)NC(=O)CN)C(=O)N[C@@H](CCCCN)C(=O)N[C@H](C(=O)N[C@@H](CC(C)C)C(=O)N[C@@H](CC(C)C)C(N)=O)[C@@H](C)O (H-GL[Cha]KR[hIle]KTLL-NH2)", "log10 HC50 at 24 h": 2.64}
{"compound": "CC[C@H](C)[C@H](NC(=O)[C@H](CCCNC(=N)N)NC(=O)[C@H](CCCCN)NC(=O)[C@H](CC(C)C)NC(=O)[C@H](Cc1ccc2ccccc2c1)NC(=O)CN)C(=O)N[C@@H](CCCCN)C(=O)N[C@H](C(=O)N[C@@H](CC(C)C)C(=O)N[C@@H](CC(C)C)C(N)=O)[C@@H](C)O (H-G[2Nal]LKRIKTLL-NH2)", "log10 HC50 at 24 h": 1.72}
{"compound": "CC[C@H](C)C[C@H](NC(=O)[C@H](CCCNC(=N)N)NC(=O)[C@H](CCCCN)NC(=O)[C@H](CC(C)C)NC(=O)[C@H](CC(C)C)NC(=O)CN)C(=O)N[C@@H](CCCCN)C(=O)N[C@H](C(=O)N[C@@H](CC(C)C)C(=O)N[C@@H](CC1CCCCC1)C(N)=O)[C@@H](C)O (H-GLLKR[hIle]KTL[Cha]-NH2)", "log10 HC50 at 24 h": 2.50}
{"compound": "CC[C@H](C)[C@H](NC(=O)[C@H](CCCCN)NC(=O)[C@H](CCCCN)NC(=O)[C@H](CC(C)C)NC(=O)[C@H](CC(C)C)NC(=O)CN)C(=O)N[C@@H](CCCCN)C(=O)N[C@@H](Cc1c[nH]c2ccccc12)C(=O)N[C@@H](CC(C)C)C(=O)N[C@@H](CC(C)C)C(N)=O (H-GLLKKIKWLL-NH2)", "log10 HC50 at 24 h": 2.18}

QUERY: Dear colleague, I am looking for the recorded log10 HC50 at 24 h of the following compound: CC[C@H](C)C[C@H](NC(=O)[C@H](CCCNC(=N)N)NC(=O)[C@H](CCCCN)NC(=O)[C@H](CC(C)C)NC(=O)[C@H](CC(C)C)NC(=O)CN)C(=O)N[C@@H](CCCCN)C(=O)N[C@H](C(=O)N[C@@H](CC1CCCCC1)C(=O)N[C@@H](CC(C)C)C(N)=O)[C@@H](C)O (H-GLLKR[hIle]KT[Cha]L-NH2)
RESULT: 2.37

====

Measured MIC values are reported for all entries that follow.
- Test system: Pseudomonas aeruginosa
- testName: Antibacterial activity against Pseudomonas aeruginosa PAO1 assessed as bacterial growth inhibition
- Type: functional
Peptide text beside a SMILES is read from it. * marks the point of attachment. Undecanoyl = CCCCCCCCCCC(=O)*; Nonanoyl = CCCCCCCCC(=O)*
Report as a plain number; the unit µM is understood.

QUERY: Dear colleague, I am looking for the recorded MIC of the following molecule: CCCCCCCCCCC(=O)NCC(=O)N[C@@H](CC(C)C)C(=O)N[C@@H](CC(C)C)C(=O)N[C@@H](CCCCN)C(=O)N[C@H](C(=O)N[C@H](C(=O)N[C@@H](CCCCN)C(=O)N[C@@H](CCCNC(=N)N)C(=O)N[C@@H](CC(C)C)C(=O)N[C@@H](CC(C)C)C(N)=O)[C@@H](C)CC)[C@@H](C)CC (Undecanoyl-GLLKIIKRLL-NH2)
RESULT: 33.3

QUERY: What do you have for CCCCCCCCCCC(=O)NCC(=O)N[C@@H](CC(C)C)C(=O)N[C@@H](CC(C)C)C(=O)N[C@@H](CCCCN)C(=O)N[C@@H](CCCCN)C(=O)N[C@H](C(=O)N[C@@H](CCCCN)C(=O)N[C@@H](CCCNC(=N)N)C(=O)N[C@@H](CC(C)C)C(=O)N[C@@H](CC(C)C)C(N)=O)[C@@H](C)CC (Undecanoyl-GLLKKIKRLL-NH2) ?
RESULT: 2.58

QUERY: What do you have for CCCCCCCCC(=O)NCC(=O)N[C@@H](CC(C)C)C(=O)N[C@@H](CC(C)C)C(=O)N[C@@H](CCCCN)C(=O)N[C@H](C(=O)N[C@H](C(=O)N[C@@H](CCCCN)C(=O)N[C@@H](CCCCN)C(=O)N[C@@H](CC(C)C)C(=O)N[C@@H](CC(C)C)C(N)=O)[C@@H](C)CC)[C@@H](C)CC (Nonanoyl-GLLKIIKKLL-NH2) ?
RESULT: 23.3
